# procedure-text: Cytotoxicity against mouse BV-2 cells assessed cell viability at 1 uM measured after 6 hrs by Ez-cytox reagent based assay relative to control
# test-parameters: read-out: Activity
measure: viability at 6 h, 1 µM (%)
Expressed in %, but write only the number.

Reported viability at 6 h, 1 µM ( O=S(=O)(/C=C/c1ncccc1Cl)c1ccccc1Cl ) = 98.9

====

pIC50 values recorded for Voltage-gated inwardly rectifying potassium channel KCNH2 (Homo sapiens, UniProt Q12809)
pIC50 is defined as minus the log10 of a concentration measured in mol/L.

smiles-record | pIC50
O=S(=O)(/C=C/c1ncccc1Cl)c1ccccc1Cl | 3.96

Attention now turns to another entry.
Reported pIC50 ( COc1ccccc1S(=O)(=O)/C=C/c1ccccc1Cl ) = 4.92

====

# procedure-text: Cytotoxicity against mouse BV-2 cells assessed cell viability at 0.3 uM measured after 6 hrs by Ez-cytox reagent based assay relative to control
# test-parameters: read-out: Activity
measure: viability at 6 h, 0.3 µM (%)
Expressed in %, but write only the number.

Reported viability at 6 h, 0.3 µM ( O=S(=O)(/C=C/c1ncccc1Cl)c1ccccc1Cl ) = 100

====

# system-name: Nuclear factor erythroid 2-related factor 2 (Homo sapiens)
# Sequence (Q16236 whole entry): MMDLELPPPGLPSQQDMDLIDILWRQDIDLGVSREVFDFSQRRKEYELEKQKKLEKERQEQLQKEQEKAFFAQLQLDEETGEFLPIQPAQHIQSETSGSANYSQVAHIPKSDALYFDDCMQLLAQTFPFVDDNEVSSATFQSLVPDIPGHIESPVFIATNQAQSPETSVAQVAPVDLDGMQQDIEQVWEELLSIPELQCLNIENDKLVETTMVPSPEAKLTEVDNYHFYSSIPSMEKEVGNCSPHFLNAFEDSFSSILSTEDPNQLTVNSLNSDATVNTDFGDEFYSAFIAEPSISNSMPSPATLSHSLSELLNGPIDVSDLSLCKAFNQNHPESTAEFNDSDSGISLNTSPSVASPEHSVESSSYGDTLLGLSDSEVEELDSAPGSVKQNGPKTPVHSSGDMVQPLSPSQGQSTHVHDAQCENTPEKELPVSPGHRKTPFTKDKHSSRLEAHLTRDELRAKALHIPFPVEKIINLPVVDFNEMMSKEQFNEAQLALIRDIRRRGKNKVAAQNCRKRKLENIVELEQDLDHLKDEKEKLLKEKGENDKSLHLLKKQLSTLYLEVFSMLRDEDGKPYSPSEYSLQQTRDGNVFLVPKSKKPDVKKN
# procedure-text: Activation of Nrf2 (unknown origin) expressed in human U2OS cells co-expressing Keap1 assessed as increase in Nrf2 nuclear translocation incubated for 6 hrs under dark condition by pathhunter assay
pEC50 values for the compounds below.
pEC50 is defined as minus the log10 of a concentration measured in mol/L.

smiles-record | pEC50
O=S(=O)(/C=C/c1cccnc1Cl)c1ccc(Cl)cc1 | 6.52
O=S(=O)(/C=C/c1ccccn1)c1cccc(Cl)c1 | 5.85
O=S(=O)(/C=C/c1ccc(Cl)nc1)c1cccc(Cl)c1 | 5.66
O=S(=O)(/C=C\c1ncccc1Cl)c1ccc(Cl)cc1 | 5.76

Reported pEC50 ( O=S(=O)(/C=C/c1ccncc1)c1cccc(F)c1 ) = 6.02

Reported pEC50 ( O=S(=O)(/C=C\c1cccnc1Cl)c1ccccc1Cl ) = 6.42

Reported pEC50 ( O=S(=O)(/C=C/c1ncccc1F)c1ccccc1Cl ) = 6.91

Reported pEC50 ( O=S(=O)(/C=C/c1ncccc1Cl)c1ccccc1F ) = 7.52

Reported pEC50 ( O=S(=O)(/C=C/c1cccnc1Cl)c1cccc(F)c1 ) = 6.48

Reported pEC50 ( O=S(=O)(/C=C/c1cccnc1)c1ccccc1Cl ) = 5.55

Reported pEC50 ( O=S(=O)(/C=C/c1cccc(Cl)n1)c1ccccc1F ) = 6.05

Reported pEC50 ( O=S(=O)(/C=C/c1cccc(Cl)n1)c1ccc(Cl)cc1 ) = 5.84

Reported pEC50 ( O=S(=O)(/C=C/c1cccnc1Cl)c1cccc(Cl)c1 ) = 6.67

Reported pEC50 ( O=S(=O)(/C=C\c1ncccc1Cl)c1cccc(Cl)c1 ) = 6.54

====

# system-name: CYP3A4 (Homo sapiens, UniProt P08684)
# Sequence (P08684 whole entry): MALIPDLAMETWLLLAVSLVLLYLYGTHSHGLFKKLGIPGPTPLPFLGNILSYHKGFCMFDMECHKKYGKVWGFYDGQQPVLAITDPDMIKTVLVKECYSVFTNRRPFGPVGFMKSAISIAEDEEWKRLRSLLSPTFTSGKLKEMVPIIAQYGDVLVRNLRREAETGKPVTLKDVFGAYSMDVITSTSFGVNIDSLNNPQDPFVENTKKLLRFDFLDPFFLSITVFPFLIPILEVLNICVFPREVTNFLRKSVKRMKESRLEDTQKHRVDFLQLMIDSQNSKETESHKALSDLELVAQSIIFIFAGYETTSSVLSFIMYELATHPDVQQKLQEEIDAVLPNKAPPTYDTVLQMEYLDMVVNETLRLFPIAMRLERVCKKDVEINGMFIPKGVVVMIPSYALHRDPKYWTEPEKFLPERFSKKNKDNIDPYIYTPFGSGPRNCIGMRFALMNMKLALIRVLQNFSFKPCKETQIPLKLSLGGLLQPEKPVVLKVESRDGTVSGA
# procedure-text: Inhibition of CYP3A4 (unknown origin) assessed as residual activity
# Type: ADME
measure: activity (%)
Expressed in %, but write only the number.

Reported activity ( O=S(=O)(/C=C/c1ncccc1Cl)c1ccccc1Cl ) = 91.2

====

# procedure-text: Cytotoxicity against mouse BV-2 cells assessed cell viability at 3 uM measured after 6 hrs by Ez-cytox reagent based assay relative to control
# test-parameters: read-out: Activity
measure: viability at 6 h, 3 µM (%)
Expressed in %, but write only the number.

Reported viability at 6 h, 3 µM ( O=S(=O)(/C=C/c1ncccc1Cl)c1ccccc1Cl ) = 92.4

====

# system-name: CYP2C19 (Homo sapiens, UniProt P33261)
# Sequence (P33261 whole entry): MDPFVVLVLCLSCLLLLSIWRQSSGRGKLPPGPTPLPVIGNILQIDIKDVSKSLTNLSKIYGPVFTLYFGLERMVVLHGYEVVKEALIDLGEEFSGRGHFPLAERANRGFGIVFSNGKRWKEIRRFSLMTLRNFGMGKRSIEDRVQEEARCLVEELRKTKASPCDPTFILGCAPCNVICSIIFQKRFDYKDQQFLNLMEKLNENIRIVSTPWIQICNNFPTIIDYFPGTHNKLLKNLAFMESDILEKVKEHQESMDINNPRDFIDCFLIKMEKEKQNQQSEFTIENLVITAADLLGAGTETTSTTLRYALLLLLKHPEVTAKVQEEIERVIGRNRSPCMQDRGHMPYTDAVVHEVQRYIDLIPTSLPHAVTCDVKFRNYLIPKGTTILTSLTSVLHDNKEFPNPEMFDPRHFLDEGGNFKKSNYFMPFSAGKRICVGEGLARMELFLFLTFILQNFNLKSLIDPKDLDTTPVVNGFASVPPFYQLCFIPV
# procedure-text: Inhibition of CYP2C19 (unknown origin) assessed as residual activity
# Format: ADME
measure: activity (%)
Expressed in %, but write only the number.

Short answer on CYP2C19 (Homo sapiens, UniProt P33261) for O=S(=O)(/C=C/c1ncccc1Cl)c1ccccc1Cl , activity: 27.8

====

# system-name: CYP1A2 (Homo sapiens)
# Sequence (P05177 whole entry): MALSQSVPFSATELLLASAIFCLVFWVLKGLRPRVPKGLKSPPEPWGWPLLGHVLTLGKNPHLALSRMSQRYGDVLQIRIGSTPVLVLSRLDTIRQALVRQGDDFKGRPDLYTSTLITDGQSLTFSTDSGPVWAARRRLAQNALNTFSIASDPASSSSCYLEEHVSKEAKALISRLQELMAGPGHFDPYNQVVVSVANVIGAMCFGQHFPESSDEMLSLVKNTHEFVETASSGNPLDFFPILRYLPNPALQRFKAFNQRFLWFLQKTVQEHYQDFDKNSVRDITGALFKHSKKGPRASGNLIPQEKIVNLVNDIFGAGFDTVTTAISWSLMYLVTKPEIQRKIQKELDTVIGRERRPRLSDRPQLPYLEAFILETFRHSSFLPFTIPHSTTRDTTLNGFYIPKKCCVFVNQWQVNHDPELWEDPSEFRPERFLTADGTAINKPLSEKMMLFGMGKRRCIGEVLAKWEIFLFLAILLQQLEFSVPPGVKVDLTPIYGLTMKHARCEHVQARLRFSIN
# procedure-text: Inhibition of CYP1A2 (unknown origin) assessed as residual activity
# Assay type: ADME
measure: activity (%)
Expressed in %, but write only the number.

Reported activity ( O=S(=O)(/C=C/c1ncccc1Cl)c1ccccc1Cl ) = 88.4

====

# procedure-text: Stability in human microsomes assessed as parent compound remaining after 30 mins
# Type: ADME, Microsome
# test-parameters: read-out: Stabilty
measure: remaining at 0.5 h
Please make sure the unit comes right after the number.

Reported remaining at 0.5 h ( O=S(=O)(/C=C/c1ncccc1Cl)c1ccccc1Cl ) = 66%

====

# procedure-text: Cytotoxicity against mouse BV-2 cells assessed cell viability at 10 uM measured after 6 hrs by Ez-cytox reagent based assay relative to control
# test-parameters: read-out: Activity
measure: viability at 6 h, 10 µM (%)
Expressed in %, but write only the number.

smiles-record | viability at 6 h, 10 µM / %
O=S(=O)(/C=C/c1ncccc1Cl)c1ccccc1Cl | 100

Attention now turns to another entry.
Reported viability at 6 h, 10 µM ( COc1ccccc1S(=O)(=O)/C=C/c1ccccc1Cl ) = 90.1

====

# system-name: Nuclear factor erythroid 2-related factor 2 (Homo sapiens)
# Sequence (Q16236 whole entry): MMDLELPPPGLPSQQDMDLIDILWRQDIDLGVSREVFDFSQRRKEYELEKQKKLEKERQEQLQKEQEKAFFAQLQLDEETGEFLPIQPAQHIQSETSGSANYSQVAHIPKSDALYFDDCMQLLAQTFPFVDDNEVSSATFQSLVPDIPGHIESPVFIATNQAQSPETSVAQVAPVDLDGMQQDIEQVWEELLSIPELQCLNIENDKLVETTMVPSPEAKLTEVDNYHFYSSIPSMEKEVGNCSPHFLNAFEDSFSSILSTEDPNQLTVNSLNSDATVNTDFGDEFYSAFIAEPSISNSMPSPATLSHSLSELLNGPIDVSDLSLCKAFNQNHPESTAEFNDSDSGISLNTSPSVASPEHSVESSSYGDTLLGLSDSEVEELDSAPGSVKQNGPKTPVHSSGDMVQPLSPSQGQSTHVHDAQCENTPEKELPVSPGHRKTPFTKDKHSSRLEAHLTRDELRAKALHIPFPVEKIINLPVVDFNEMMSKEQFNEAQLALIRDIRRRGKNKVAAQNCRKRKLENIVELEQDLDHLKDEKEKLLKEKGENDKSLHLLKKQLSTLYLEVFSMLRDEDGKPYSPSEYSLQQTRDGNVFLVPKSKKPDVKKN
# procedure-text: Activation of Nrf2 (unknown origin) expressed in human U2OS cells co-expressing Keap1 assessed as increase in Nrf2 nuclear translocation incubated for 6 hrs under dark condition by pathhunter assay
# Format: cell-based
# note: exactly 1000 nM is not below, so it is not met; use met for EC50 strictly under it

Use these answered entries as a reference point.
smiles-record | class-label
O=S(=O)(/C=C\c1ccc(Cl)nc1)c1cccc(F)c1 | met
O=S(=O)(/C=C/c1ccc(Cl)cn1)c1ccccc1F | not met
O=S(=O)(/C=C/c1ccc(Cl)cn1)c1cccc(Cl)c1 | not met

Input line: I wonder whether O=S(=O)(/C=C/c1ccncc1)c1ccccc1Cl has EC50 below 1000 nM. Can you tell?
Output line: met

Input line: I wonder whether O=S(=O)(/C=C/c1ccccn1)c1ccccc1F has EC50 below 1000 nM. Can you tell?
Output line: not met
